Cited source for all entries: paper PMC11249646

Subject Of Test: CIB1 and αIIb interaction (CIB1-GST : F-αIIb peptide) (Homo sapiens, UniProt Q99828)
Construct: made in house; host or cells: BL-21 plus RIL cells (E. coli)
Assay Summary: FP assay, 1536-well qHTS format (primary and confirmatory screen)
Assay type: binding
Measurement Parameters: qHTS primary screen hits, Table S2; negative = inhibition
Measure Name: Efficacy (%)
Remember to quote the unit after the number.

Consider the following illustrative entries.
> print(dat)
                                   compound  value.observed
1         Cl.Cl.Nc1ccc(/N=N/c2ccccc2)c(N)n1            -22%
2  O=C(O)C(F)(F)F.O=C1c2ccccc2NC(c2ccc(-c3ccc(C(F)(F)F)cc3)o2)N1O (centres unmarked)            -24%
3  Cn1cnc(-c2nccc3c(O)nc(OCCCC(F)(F)F)nc23)c1.O=C(O)C(F)(F)F            -25%
4  O=C(O)C(F)(F)F.O=C1Nc2ccccc2/C1=N/NC(=S)NCc1ccccc1            -24%

Below: the item to evaluate.
Look at this compound and give its reported Efficacy (%). `CN(C)c1cccc(N2CCN(c3nn4c(=O)c5ccccc5nc4s3)CC2)c1.Cl` -35%

----------
Below, each entry is listed alongside its reported COUNTERSCREEN Efficacy (%).
Subject Of Test: GST-CIB1 : F-scrambled peptide (Homo sapiens)
Construct: made in house; host or cells: BL-21 plus RIL cells (E. coli)
Assay Summary: FP scrambled-peptide counter screen, 1536-well format
Assay type: binding
Measurement Parameters: scrambled-peptide counterscreen
Remember to quote the unit after the number.

> print(dat)
                                   compound  value.observed
1  CCc1ccc(S(=O)(=O)Nc2cnccc2C(=O)Nc2nc(-c3ccccc3)cs2)cc1.O=C(O)C(F)(F)F [NCGC00344909-01]             14%
2  Cc1ccc(S(=O)(=O)Nc2cnccc2C(=O)Nc2nc(-c3ccccc3)cs2)cc1.O=C(O)C(F)(F)F [NCGC00262386-01]            -51%
3  COC(=O)C12C(=O)C(C)(O)C(=O)C1(C)C(C)=CC1C34CCC(OC3=O)C(C)(CO)C4CCC12C (centres unmarked) [NCGC00380147-01]            -27%

Look at this compound and give its reported COUNTERSCREEN Efficacy (%). Cc1ccc(S(=O)(=O)Nc2nn3c(=O)c4ccccc4nc3s2)cc1C.O=C(O)C(F)(F)F [NCGC00187578-01] 39%

Try this compound next: Cc1ccc(Cl)cc1NC(=O)c1nc[nH]c1C(=O)Nc1nc2ccccc2[nH]1 [NCGC00244259-01] -15%

----------
Subject Of Test: CIB1 and αIIb interaction (CIB1-GST : F-αIIb peptide) (Homo sapiens, UniProt Q99828)
Construct: made in house; host or cells: BL-21 plus RIL cells (E. coli)
Sequence (Q99828 1-191): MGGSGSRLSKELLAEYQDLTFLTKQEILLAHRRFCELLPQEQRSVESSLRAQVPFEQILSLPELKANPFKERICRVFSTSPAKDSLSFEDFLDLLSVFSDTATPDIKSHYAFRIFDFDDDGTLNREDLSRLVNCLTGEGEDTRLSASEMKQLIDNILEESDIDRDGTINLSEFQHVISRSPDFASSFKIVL
Assay Summary: FP assay, 1536-well qHTS format (primary and confirmatory screen)
Assay type: binding
Measurement Parameters: qHTS primary screen hits, Table S2; negative = inhibition
Measure Name: Efficacy (%)
Give the value, in units of %, as a plain number.

Consider the following illustrative entries.
> print(dat)
                                   compound  value.observed
1  O=C(Nc1nc(-c2ccccc2)cs1)c1ccncc1NS(=O)(=O)c1ccccc1Cl.O=C(O)C(F)(F)F [NCGC00344943-02]             -50
2  Cc1c(Cl)cccc1-n1c(CCC(=O)O)ccc1-c1cccs1 [NCGC00100415-03]             -50
3  Cl.Cl.O=C(O)c1cn(-c2ccc(F)cc2)c2cc(N3CCNCC3)c(F)cc2c1=O [NCGC00177995-02]             -41
4  O=[N+]([O-])c1cnc(Sc2nnc(O)n2-c2ccc3c(c2)OCCO3)s1 [NCGC00263145-01]             -40
5  Cc1nc(CNc2ncnc3ccc(-c4ccc(CO)o4)cc23)cs1.O=C(O)C(F)(F)F [NCGC00188652-01]             -35

# query: Efficacy (%) | item CCN(CC)CCCN(c1ccccc1)C1Cc2ccccc2C1.Cl [NCGC00167576-02] | system: CIB1 and αIIb interaction (CIB1-GST : F-αIIb peptide) (Homo sapiens, UniProt Q99828) -57

Try this compound next: O=C(O)C(F)(F)F.O=C1Nc2ccccc2/C1=N/NC(=S)Nc1ccc(Oc2ccccc2)cc1 [NCGC00229524-01] -25

Try this compound next: Cc1ccc(C)n1-c1ccc(C(=O)O)cc1.O=C(O)C(F)(F)F [NCGC00273552-01] -38

Try this compound next: CC(=O)N1CCN(c2ccc(NC[C@H]3CO[C@](Cn4ccnc4)(c4ccc(Cl)cc4Cl)O3)cc2)CC1 [NCGC00250372-03] -45
